These data points were gathered from paper PMC9181938.

- Tested on: HeLa cells
- METHOD SUMMARY: Cytotoxicity MTT assay (0.1–1000 µM), CC50
- Assay type: cell-based, Human
- EXPERIMENTAL CONDITIONS: MTT, 48 h, read-out: CC50 Cancer Cell Lines HeLa
As shown below, each of these compounds has a reported CC50 value.
// return numeric value only (unit: nM, not printed)

[
  {
    "COMPOUND": "Cc1c(C)[n+](Cc2cccc(F)c2)cn1Cc1ccccc1 [1e[PF6]]",
    "CC50 / nM": 80
  }
]

We next turn to a different compound, shown below.
## Task Give the value of CC50 reported for the following: Cc1c(C)[n+](Cc2cccc(F)c2)cn1Cc1ccccc1.[Cl-]
## Result 39
